Kindly state Percentage (%) for each of the entries shown.
System: USP8 MIT domain
ASSAY_INFO: SPOT array of predicted peptides from known interactors, USP8 MIT domain
Type: binding, human
ASSAY_CONDITIONS: Supplementary Fig. 4B, normalized to the highest intensity and corrected for background
The reply should be a number in %, with the unit left off.

What Percentage (%) appears in the records for this sequence with USP8 MIT domain? PFEDFFGNRRGPR [DNAJB6_118 − 130, DnaJ homolog subfamily B member 6 peptide]
100

Similarly, MVSWGRFICLVVVTM [FGFR2, Fibroblast growth factor receptor 2 peptide] ?
3

Same for RGVLALALLALALC [RNF149, E3 ubiquitin-protein ligase RNF149 peptide]
3

Try this sequence too: QGPALRYFQLPPRAA [SHANK1 B6, SHANK1 peptide, array position B6]
7

Let us now turn to NEWGNRFKKLADMYG [CDH1_863 − 877, Cadherin-1 peptide]
71

Please answer likewise for SRGLQLLLLSCAYS [CD83, CD83 antigen peptide]
6

Also need MDLLFGRRKTPEELL [CHMP2A, Charged multivesicular body protein 2a peptide] , thanks.
-8

Same lookup for PPSSSLELLASLTP [PTPN23, Tyrosine-protein phosphatase non-receptor type 23 peptide] , please.
-7

----------
Test system: USP8 MIT domain
ASSAY_INFO: Peptide-phage display-based deep mutational scanning (DMS), USP8 MIT domain
Type: binding, human
ASSAY_CONDITIONS: sheet S3.B_ProP-PD_pairs; bait USP8_MIT__P40818_1_142; ratio within the wild-type/mutant pair, larger over smaller averaged fraction (direction from fraction_wt and fraction_mut)
hit_pair_ratio strictly less than 30 = 1. Otherwise -1.

Strictly below 30: is that where hit_pair_ratio of `MDDDYEAYHSLFLWLL` sits?
1

What about this sequence? `MDDDYEAMHSLFLSLL`
-1

Follow-up entry: `VEVSDIESRIAALRAA`
1

Now consider `MDDDYEAYHSLFLSLI` and answer again.
-1

What do you have for `MDDDYEAYLSLFLSLL` ?
1

Next record, please: `MDDDYEAYHNLFLSLL`
1

Cool, now `MDDDYEAYHSLFLSHL`
-1

Again, but for `MDDDYEAYHDLFLSLL`
1

Same again, this time with `SEQSDIESRIAALRAA`
1

Try this sequence next: `SQVSDIESRIAALRAA`
1

Field entry: `MDDDYEAYHSPFLSLL`
-1

And `SETSDIESRIAALRAA` ?
1

Then this sequence: `MDDDYEALHSLFLSLL`
-1

Also check `MDDDYEAYHSLFVSLL`
-1

// query: `SEASDIESRIAALRAA`
1

Same for `MDDDYEAYHSRFLSLL`
-1

And what about the sequence `MDDDYEAYHALFLSLL` ?
-1

----------
SYSTEM_TESTED: USP8 Rhod domain (Homo sapiens, UniProt P40818)
Construct: USP8 Rhod (174–317) (UniProt: P40818); GST (cleaved yes); made in house; host or cells: Escherichia coli BL21-Gold (DE3)
Sequence (P40818 174-317): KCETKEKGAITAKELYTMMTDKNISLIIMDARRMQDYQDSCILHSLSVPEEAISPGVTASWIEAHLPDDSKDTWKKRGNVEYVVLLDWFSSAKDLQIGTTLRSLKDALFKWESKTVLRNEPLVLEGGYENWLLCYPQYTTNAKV
ASSAY_INFO: ProP-PD selection against USP8 Rhod domain
Format: binding
ASSAY_CONDITIONS: fraction of NGS counts for a selection
REPORTED_ENDPOINT: Counts
Please give only the number in your answer, with no unit.

Field: Counts (USP8 Rhod domain (Homo sapiens, UniProt P40818)). Entry: QPNHGLALWEAKMKQL [TET3 1701-1716, Methylcytosine dioxygenase TET3 peptide, overlapping]
0.00009459587683709846

What about this sequence? YDTLIIRDYTQSSSSL [GRM5, Metabotropic glutamate receptor 5 peptide 1197-1212]
0.0001477

Now the sequence LMNFLGDSNPFNLLRM [BCL11B, B-cell lymphoma/leukemia 11B peptide 279-294]
0.006181

Note, next up: HIWHYDEEYLPDASKP [TTBK2, Tau-tubulin kinase 2 peptide 503-518]
0.0007473

----------
SYSTEM_TESTED: USP8 Rhod domain (Homo sapiens)
Construct: USP8 Rhod (174–317) (UniProt: P40818); GST (cleaved yes); made in house; host or cells: Escherichia coli BL21-Gold (DE3)
Sequence (P40818 174-317): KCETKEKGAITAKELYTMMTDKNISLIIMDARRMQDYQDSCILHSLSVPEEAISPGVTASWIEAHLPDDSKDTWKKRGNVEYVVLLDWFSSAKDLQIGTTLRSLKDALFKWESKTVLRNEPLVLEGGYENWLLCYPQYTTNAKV
ASSAY_INFO: Peptide-phage display-based deep mutational scanning (DMS), USP8 Rhod domain
Type: binding
ASSAY_CONDITIONS: wild type/mutant pair; bait USP8_Rhodanese__P40818_174_317; vs hit_library_peptide_wt GLALWEAKMKQLAERA; negative where mutant fraction exceeds wild type; ProP-PD pairs (sheet S7.B)
# hit_pair_ratio binned as c1 (below 30), c2 (30 to below 300), c3 (300 or more)

Any idea which band `GLALWEQKMKQLAERA` is in?
c1

Now the sequence `GLALWVAKMKQLAERA`
c3

Try `GLALWEAKTKQLAERA` next.
c1

Query `GLALVEAKMKQLAERA` next
c3

Note, next up: `GLAAWEAKMKQLAERA`
c2

Thanks! And `GLALWERKMKQLAERA` ?
c3

Also check `GLAPWEAKMKQLAERA`
c3

Continue with `GLALWEANMKQLAERA`
c2

And the next one, `GLADWEAKMKQLAERA` ?
c3

Another sequence to check: `GLALWEAKHKQLAERA`
c2

Next up: `GKALWEAKMKQLAERA`
c3

Same lookup for `GLALWENKMKQLAERA` , please.
c1

Likewise for `GLALWEEKMKQLAERA` ?
c3

Quick one: `GHALWEAKMKQLAERA`
c2

Record: `GLALWEAKWKQLAERA`
c1

Entry to check: `ELALWEAKMKQLAERA`
c2

For `GLALWEHKMKQLAERA` then?
c1

One more sequence: `GLQLWEAKMKQLAERA`
c1

Now try `GLPLWEAKMKQLAERA` .
c1

// same read-out, input: `GLALWEAEMKQLAERA`
c3

// same read-out, input: `GLALWEAKNKQLAERA`
c2

Check `GYALWEAKMKQLAERA` too.
c2

Then what about the sequence `GLALWEAKMNQLAERA` ?
c1

Also check `GLSLWEAKMKQLAERA`
c2

`GLALSEAKMKQLAERA` ?
c2

Ok, now `GLASWEAKMKQLAERA`
c2

Next: `GLALWYAKMKQLAERA`
c3

Please answer likewise for `GLVLWEAKMKQLAERA`
c1

Next entry: `GLELWEAKMKQLAERA`
c1

And then `GLATWEAKMKQLAERA` , what is it?
c1

And then `GLALLEAKMKQLAERA` , what is it?
c3

Would you mind doing `GLALWEAKIKQLAERA` as well?
c2

Lookup `GLALWDAKMKQLAERA`
c2

Input `GLTLWEAKMKQLAERA`
c2

Now the sequence `GLALWEMKMKQLAERA`
c1

Let us now turn to `GLARWEAKMKQLAERA`
c1

Lookup `GLALWEYKMKQLAERA`
c2

Repeat with `GLALWEAKQKQLAERA`
c2

And for `GLALWEIKMKQLAERA` ?
c2

And for `GLALWEWKMKQLAERA` ?
c1

Now consider `GLAFWEAKMKQLAERA` .
c1

Same thing, different sequence: `GLALFEAKMKQLAERA`
c3

What would you report for `GLALWSAKMKQLAERA` ?
c1

Ok, now `GLAHWEAKMKQLAERA`
c3

Follow-up item: `GLALWHAKMKQLAERA`
c2

Same for `GRALWEAKMKQLAERA`
c3

Same read-out for `GLALWEAKSKQLAERA` ?
c1

# repeat for `GLLLWEAKMKQLAERA`
c3

What about this sequence? `GLALHEAKMKQLAERA`
c3

Now this one: `GVALWEAKMKQLAERA`
c1

Now the sequence `GLALGEAKMKQLAERA`
c2

Queued: `GLALWAAKMKQLAERA`
c3

Request: `GWALWEAKMKQLAERA`
c1

Also `GLALWEVKMKQLAERA` ?
c2

Likewise for `GLALWELKMKQLAERA` ?
c3

Repeat with `GLFLWEAKMKQLAERA`
c3

Then what about the sequence `GLAEWEAKMKQLAERA` ?
c2

Try the sequence `GIALWEAKMKQLAERA`
c1

Record: `GMALWEAKMKQLAERA`
c1

`GLALWEGKMKQLAERA` , same question.
c2

// same read-out, input: `GLKLWEAKMKQLAERA`
c3

Now try `GLAQWEAKMKQLAERA` .
c1

How about `NLALWEAKMKQLAERA` ?
c2

Another: `GLAGWEAKMKQLAERA`
c2

// repeat for `GPALWEAKMKQLAERA` and report
c3

Then this sequence: `GLALWEAKYKQLAERA`
c2

# iterate: `GFALWEAKMKQLAERA`
c2
